Data provenance is ChEMBL document CHEMBL2021911.

Biological target: UniProt:P11229
Sequence (whole entry): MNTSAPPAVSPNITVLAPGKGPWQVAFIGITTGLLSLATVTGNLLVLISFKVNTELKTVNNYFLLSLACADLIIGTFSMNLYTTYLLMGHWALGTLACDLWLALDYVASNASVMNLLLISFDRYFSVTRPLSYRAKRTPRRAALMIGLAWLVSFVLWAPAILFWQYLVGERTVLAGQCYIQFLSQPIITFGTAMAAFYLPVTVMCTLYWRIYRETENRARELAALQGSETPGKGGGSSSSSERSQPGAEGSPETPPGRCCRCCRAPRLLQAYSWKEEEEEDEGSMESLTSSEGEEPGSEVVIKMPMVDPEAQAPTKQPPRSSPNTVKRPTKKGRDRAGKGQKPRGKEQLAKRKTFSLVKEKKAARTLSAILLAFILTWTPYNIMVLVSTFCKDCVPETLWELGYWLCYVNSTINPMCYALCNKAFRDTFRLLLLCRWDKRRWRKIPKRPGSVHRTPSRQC
Experiment: Agonist activity at human muscarinic M1 receptor at 30 uM relative to acetylcholine
Type: functional
Exercise: state measured Activity for each of the compounds provided.
Value and unit, in that order.

Reported Activity ( CCOC(=O)N1C2CCC1CC(N1CC[C@H](NC(=O)c3ccccc3C)C1)C2 (mixture of isomers) ) = 22%

Reported Activity ( CCOC(=O)N1[C@@H]2CC[C@H]1C[C@H](NCCNC(=O)c1ccccc1)C2 ) = 49%

Reported Activity ( CCOC(=O)N1CCC(NCCNC(=O)c2ccccc2C)CC1 ) = 35%

Reported Activity ( CCOC(=O)N1[C@@H]2CC[C@H]1C[C@H](NCCNC(=O)c1ccc(F)cc1)C2 ) = 54%

Reported Activity ( CCOC(=O)N1[C@@H]2CC[C@H]1C[C@H](NCCNC(=O)N1CCOCC1)C2 ) = 44%

Reported Activity ( CCOC(=O)N1C2CCC1CC(N1CC[C@@H](NC(=O)c3ccccc3)C1)C2 (mixture of isomers) ) = 62%

Reported Activity ( CCOC(=O)N1C[C@H]2CC[C@@H](C1)[C@H]2NCCNC(=O)N1CCOCC1 ) = 11%

---

target: Muscarinic acetylcholine receptor M3 (Homo sapiens, UniProt P20309); test: Agonist activity at human muscarinic M3 receptor by calcium mobilization assay; format: functional; conditions: read-out: EC50
Sequence (P20309 whole entry): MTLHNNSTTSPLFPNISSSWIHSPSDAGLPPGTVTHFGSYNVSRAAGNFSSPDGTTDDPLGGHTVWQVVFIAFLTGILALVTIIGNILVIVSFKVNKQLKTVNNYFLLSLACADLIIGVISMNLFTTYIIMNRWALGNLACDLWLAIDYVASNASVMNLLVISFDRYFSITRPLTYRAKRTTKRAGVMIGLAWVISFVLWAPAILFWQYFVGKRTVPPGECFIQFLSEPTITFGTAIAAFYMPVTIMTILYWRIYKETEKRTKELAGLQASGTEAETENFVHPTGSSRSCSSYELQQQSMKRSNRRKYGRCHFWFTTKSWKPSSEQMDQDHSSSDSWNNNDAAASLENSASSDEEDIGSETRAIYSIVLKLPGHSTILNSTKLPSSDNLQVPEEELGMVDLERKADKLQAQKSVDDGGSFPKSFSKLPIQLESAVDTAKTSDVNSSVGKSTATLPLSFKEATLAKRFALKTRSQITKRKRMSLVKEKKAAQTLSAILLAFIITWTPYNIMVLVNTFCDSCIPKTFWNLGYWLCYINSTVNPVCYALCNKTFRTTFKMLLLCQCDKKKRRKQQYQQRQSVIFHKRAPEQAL
parameterMeasured: pEC50
Worth noting: pEC50 values are minus log10 of concentrations stated in mol/L.

Reported pEC50 ( CCCCC1CCN(CCCN2C(=O)COc3cc(F)ccc32)CC1 ) = 5.23

---

biological target: Muscarinic acetylcholine receptor M1 (Homo sapiens) (UniProt P11229); assay: Agonist activity at human muscarinic M1 receptor at 30 uM relative to acetylcholine; format: functional
parameterMeasured: Activity
Value and unit, in that order.

Reported Activity ( C=CCOC(=O)N1[C@@H]2CC[C@H]1C[C@H](NCCNC(=O)c1ccccc1)C2 ) = 40%

Reported Activity ( CCOC(=O)N1[C@@H]2CC[C@H]1C[C@H](NCCNC(=O)c1ccccc1C)C2 ) = 47%

Reported Activity ( CCOC(=O)N1[C@@H]2CC[C@H]1C[C@H](NCCNC(=O)c1cc(F)cc(F)c1)C2 ) = 43%

Reported Activity ( CCOC(=O)N1[C@@H]2CC[C@H]1C[C@H](NCCNC(=O)c1cccc(OC)c1)C2 ) = 33%

Reported Activity ( CCOC(=O)N1C[C@H]2CC[C@@H](C1)[C@H]2NCCNC(=O)c1ccccc1 ) = 53%

Reported Activity ( CCOC(=O)N1[C@@H]2CC[C@H]1C[C@H](NCCNC(=O)N1CCCC1)C2 ) = 11%

Reported Activity ( CCOC(=O)N1CC[C@H]2[C@H](CCCN2CCNC(=O)c2ccccc2)C1 (relative stereo) ) = 13%

Reported Activity ( CCOC(=O)N1[C@@H]2CC[C@H]1C[C@H](NCCNC(=O)N1[C@H](C)CCC[C@@H]1C)C2 ) = 39%

---

experiment: AUC in rat at 10 mg/kg, po; assay type: ADME, organism-based; set-up: dose 10 mg/kg, route oral; settings: plasma
parameterMeasured: AUC (ng·h/mL)
Please reply with the bare figure in ng·h/mL and do not write the unit itself.

Reported AUC ( CCOC(=O)N1C2CCC1CC(N1CCC[C@@H](NC(=O)c3ccccc3C)C1)C2 (mixture of isomers) ) = 639

---

Exercise: state measured EC50 for each of the compounds provided.
Target: Muscarinic acetylcholine receptor M1 (Homo sapiens, UniProt P11229)
Sequence (P11229 whole entry): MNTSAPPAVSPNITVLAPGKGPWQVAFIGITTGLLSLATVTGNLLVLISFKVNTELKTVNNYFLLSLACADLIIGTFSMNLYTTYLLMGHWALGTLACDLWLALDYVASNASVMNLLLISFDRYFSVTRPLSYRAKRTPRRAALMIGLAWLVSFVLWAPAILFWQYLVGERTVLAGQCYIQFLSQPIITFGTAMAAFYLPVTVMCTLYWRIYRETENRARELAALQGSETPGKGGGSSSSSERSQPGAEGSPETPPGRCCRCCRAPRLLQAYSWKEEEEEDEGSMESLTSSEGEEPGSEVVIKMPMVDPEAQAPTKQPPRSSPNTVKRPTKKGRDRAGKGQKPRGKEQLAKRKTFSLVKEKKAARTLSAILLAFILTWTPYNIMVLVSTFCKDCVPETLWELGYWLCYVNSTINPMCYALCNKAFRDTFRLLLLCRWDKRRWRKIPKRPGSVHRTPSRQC
Assay: Agonist activity at human muscarinic M1 receptor
Assay type: functional
Settings: read-out: EC50

Considering CCOC(=O)N1CCC(N2CCC[C@@H](NC(=O)c3ccccc3C)C2)CC1 , its EC50 with Muscarinic acetylcholine receptor M1 (Homo sapiens, UniProt P11229) was recorded as 890 nM

Considering CCOC(=O)N1[C@@H]2CC[C@H]1C[C@H](NCCNC(=O)c1ccc(F)cc1)C2 , its EC50 with Muscarinic acetylcholine receptor M1 (Homo sapiens, UniProt P11229) was recorded as 830 nM

Considering CCOC(=O)N1[C@@H]2CC[C@H]1C[C@H](NCCNC(=O)c1ccccc1C)C2 , its EC50 with Muscarinic acetylcholine receptor M1 (Homo sapiens, UniProt P11229) was recorded as 1100 nM

Considering CCOC(=O)N1C2CCC1CC(N1CCC[C@H](NC(=O)c3ccccc3)C1)C2 (mixture of isomers) , its EC50 with Muscarinic acetylcholine receptor M1 (Homo sapiens, UniProt P11229) was recorded as > 10000 nM

Considering CCOC(=O)N1[C@@H]2CC[C@H]1C[C@H](NCCNC(=O)N1[C@H](C)CCC[C@@H]1C)C2 , its EC50 with Muscarinic acetylcholine receptor M1 (Homo sapiens, UniProt P11229) was recorded as 2500 nM

Considering CCOC(=O)N1C2CCC1CC(N1CC[C@H](NC(=O)c3ccccc3C)C1)C2 (mixture of isomers) , its EC50 with Muscarinic acetylcholine receptor M1 (Homo sapiens, UniProt P11229) was recorded as > 10000 nM

Considering CCOC(=O)N1[C@@H]2CC[C@H]1C[C@H](NCCNC(=O)c1ccccc1)C2 , its EC50 with Muscarinic acetylcholine receptor M1 (Homo sapiens, UniProt P11229) was recorded as 970 nM

Considering CCOC(=O)N1[C@@H]2CC[C@H]1C[C@@H](NCCNC(=O)c1ccccc1)C2 , its EC50 with Muscarinic acetylcholine receptor M1 (Homo sapiens, UniProt P11229) was recorded as 110 nM

Considering COC(=O)N1[C@@H]2CC[C@H]1C[C@H](NCCNC(=O)c1ccccc1)C2 , its EC50 with Muscarinic acetylcholine receptor M1 (Homo sapiens, UniProt P11229) was recorded as > 10000 nM

Considering CCOC(=O)N1CC[C@H]2[C@H](CCCN2CCNC(=O)c2ccccc2)C1 (relative stereo) , its EC50 with Muscarinic acetylcholine receptor M1 (Homo sapiens, UniProt P11229) was recorded as 1200 nM

Considering CCOC(=O)N1C2CCC1CC(N1CC(NC(=O)c3ccccc3)C1)C2 (mixture of isomers) , its EC50 with Muscarinic acetylcholine receptor M1 (Homo sapiens, UniProt P11229) was recorded as 2200 nM

Considering CCOC(=O)N1[C@@H]2CC[C@H]1C[C@H](NCCNC(=O)C1CCCCC1)C2 , its EC50 with Muscarinic acetylcholine receptor M1 (Homo sapiens, UniProt P11229) was recorded as 1500 nM

Considering CCOC(=O)N1C[C@@H]2C(NCCNC(=O)c3ccccc3C)[C@@H]2C1 (some centres undefined) , its EC50 with Muscarinic acetylcholine receptor M1 (Homo sapiens, UniProt P11229) was recorded as 4100 nM

Considering CCOC(=O)N1[C@@H]2CC[C@H]1C[C@H](NCCNC(=O)c1cccc(Cl)c1)C2 , its EC50 with Muscarinic acetylcholine receptor M1 (Homo sapiens, UniProt P11229) was recorded as 440 nM

Considering CCOC(=O)N1C2CCC1CC(N1CC[C@@H](NC(=O)c3ccccc3)C1)C2 (mixture of isomers) , its EC50 with Muscarinic acetylcholine receptor M1 (Homo sapiens, UniProt P11229) was recorded as 320 nM

Considering CCOC(=O)N1C[C@H]2CC[C@@H](C1)[C@H]2NCCNC(=O)c1cc(F)cc(F)c1 , its EC50 with Muscarinic acetylcholine receptor M1 (Homo sapiens, UniProt P11229) was recorded as 200 nM

Considering CCOC(=O)N1C2CCC1CC(N1CCC[C@@H](NC(=O)c3ccccc3)C1)C2 (mixture of isomers) , its EC50 with Muscarinic acetylcholine receptor M1 (Homo sapiens, UniProt P11229) was recorded as 840 nM

Considering CCOC(=O)N1C[C@H]2CC[C@@H](C1)[C@H]2NCCNC(=O)N1CCOCC1 , its EC50 with Muscarinic acetylcholine receptor M1 (Homo sapiens, UniProt P11229) was recorded as > 10000 nM

Considering CCOC(=O)N1C2CCC1CC(N1CC[C@H](NC(=O)c3ccccc3)C1)C2 (mixture of isomers) , its EC50 with Muscarinic acetylcholine receptor M1 (Homo sapiens, UniProt P11229) was recorded as 1200 nM

Considering CCOC(=O)N1[C@@H]2CC[C@H]1C[C@H](NCCNC(=O)c1cccc(OC)c1)C2 , its EC50 with Muscarinic acetylcholine receptor M1 (Homo sapiens, UniProt P11229) was recorded as 3600 nM

Considering O=C(NCCN[C@@H]1C[C@H]2CC[C@@H](C1)N2C(=O)OCc1ccccc1)c1ccccc1 , its EC50 with Muscarinic acetylcholine receptor M1 (Homo sapiens, UniProt P11229) was recorded as > 10000 nM

Considering CCOC(=O)N1[C@@H]2CC[C@H]1C[C@H](NCCNC(=O)c1cccs1)C2 , its EC50 with Muscarinic acetylcholine receptor M1 (Homo sapiens, UniProt P11229) was recorded as 1000 nM

Considering CCOC(=O)N1C[C@H]2CC[C@@H](C1)[C@H]2NCCNC(=O)c1ccccc1 , its EC50 with Muscarinic acetylcholine receptor M1 (Homo sapiens, UniProt P11229) was recorded as 92 nM

Considering CCOC(=O)N1C[C@H]2CC[C@@H](C1)[C@H]2NCCNC(=O)c1cccc(OC)c1 , its EC50 with Muscarinic acetylcholine receptor M1 (Homo sapiens, UniProt P11229) was recorded as 240 nM
